Every entry's value here was drawn from the supplement of paper PMC13380429.

Test system: U2OS
Experiment: cell viability relative to DMSO; higher = less toxic
Details: 72 h; 10000 nM
VALUE KIND: cell viability (%)
Form entry: value (%) — number only.

As a guide, the following entries are already answered.
CO/N=C(\C(=O)N[C@@H]1C(=O)N2C(C(=O)O)=CCS[C@H]12)c1csc(N)n1 [ceftizoxim]; 98.7
C[C@@H](O)[C@H]1C(=O)N2C(C(=O)[O-])=C(SC3Cn4cnc[n+]4C3)[C@H](C)[C@H]12 (stereo partly drawn) [biapenem]; 100

Now consider a different compound.
Ask: Which cell viability value is on record for CC(C)NCCN(C(C)C)S(=O)(=O)c1ccc(Cl)cc1Cl [RN-1734] ?
Reply: 94.7

###

System: Caco-2
Experiment: cell viability relative to DMSO; higher = less toxic
Conditions: 72 h; 10000 nM
VALUE KIND: cell viability (%)
Provide the reading as a plain figure in %.

C=CCN1C[C@H](C)N([C@H](c2ccc(C(=O)N(CC)CC)cc2)c2cccc(OC)c2)C[C@H]1C; 93.7
COc1ccc2nc3ccc(Cl)cc3c(SCCCN)c2c1; 99.2
c1cc(OCCN2CCCCC2)cc(-c2n[nH]c3ccc(-c4nnc[nH]4)cc23)c1; 106
FCc1ccc(OCCOc2ccc(Cl)cc2Cl)c(Cl)n1; 77

Okay, next one:
Ask: // cell viability lookup, key: Oc1c(I)cc(I)c2cccnc12
Reply: 63.1

###

Test system: A549-ACE2
Test: drug-induced phospholipidosis relative to tamoxifen; higher = more phospholipidosis
Conditions: 0.3 µM; 48 h
VALUE KIND: drug-induced phospholipidosis
State the result as a value with its unit after it.

CC(NCCC(c1ccccc1)c1ccccc1)c1ccccc1 (centres undefined); 2.47%
CN1CCCN(C(c2ccccc2)c2ccc(Cl)cc2)CC1 (centres undefined); 3.21%
COc1cc(/C=C/C(=O)CC(=O)/C=C/c2ccc(O)c(OC)c2)ccc1O; 3.07%

Here is the next item to consider.
Ask: drug-induced phospholipidosis lookup needed for CCN(CC)CCOc1ccc(/C(=C(\Cl)c2ccccc2)c2ccccc2)cc1 , thanks.
Reply: 7.92%

###

System: Caco-2
Test: cell viability relative to DMSO; higher = less toxic
Conditions: 72 h; 1000 nM
Threshold check on cell viability: strictly below 70% is Satisfied; on or above 70% is Not satisfied.

O=c1[nH]c2ccccc2n1CCCN1CCC(n2c(=O)[nH]c3cc(Cl)ccc32)CC1; Not satisfied
c1cc(OCCN2CCCCC2)cc(-c2n[nH]c3ccc(-c4nnc[nH]4)cc23)c1; Not satisfied
O=C(CCCCCCCn1cc(-c2cccnc2)nn1)Nc1ccccc1-c1ccccc1; Satisfied

Please turn your attention to the following entry.
Ask: Confirm or reject: cell viability of CN(C)Cc1cccc(N/C(=C2\C(=O)Nc3cc(C(N)=O)ccc32)c2ccccc2)c1 lies strictly below 70%
Reply: Not satisfied

###

System: Calu-3
Experiment: cell viability relative to DMSO; higher = less toxic
Details: 72 h; 1000 nM
VALUE KIND: cell viability (%)
Give the value in % but do not write % after it.

Use the examples below as a reference point.
CCOC(=O)c1ncc2[nH]c3ccc(OCc4ccccc4)cc3c2c1COC; 104
O=C(NCc1ccccc1)OCCO [buramate]; 94.9
CCN(CC)CCOC(=O)C(c1ccccc1)c1ccccc1 [adiphenine]; 104
COc1cc2nccc(Oc3ccc(NC(=O)C4(C(=O)Nc5ccc(F)cc5)CC4)cc3)c2cc1OC [cabozantinib]; 88.1
CN(C)C(=O)c1cc2cnc(Nc3ccc(N4CCNCC4)cn3)nc2n1C1CCCC1 [ribociclib]; 95.3
CCn1nc(C(=O)O)c(=O)c2cc3c(cc21)OCO3 [cinoxacin]; 93.9
CCOC(=O)CCNc1cc(N2CCc3ccccc3CC2)nc(-c2ccccn2)n1 [GSK-J4]; 97.5
O=C1c2cccc3c2[C@H](CCC3)CN1[C@@H]1CN2CCC1CC2 [palonosetron]; 100

Ask: Dear colleague, I am looking for the recorded cell viability of the following molecule: O=S1(=O)CCN(CN2CCS(=O)(=O)NC2)CN1 [taurolidine]
Reply: 92.7

Ask: Give the measured cell viability of C=CC(=O)Nc1ccc2ncnc(Nc3cccc(Br)c3)c2c1 .
Reply: 32.9

###

Reported cell viability by item:
Test system: Vero E6
Assay: cell viability relative to DMSO; higher = less toxic
Conditions: 72 h; 100 nM
Write the number in % without appending the unit.

Ask: cell viability lookup needed for CCCCC/N=c1\ccn(Cc2ccccc2)c2ccccc12 , thanks.
Reply: 90.6

Ask: Look up cell viability for this compound: CC1(C)Oc2ccc(C#N)cc2[C@H](N(Cc2ncc[nH]2)c2ccc(Cl)cc2)[C@H]1O
Reply: 95.2

Ask: Could you share which cell viability value was measured for CN(C)Cc1cccc(N/C(=C2\C(=O)Nc3cc(C(N)=O)ccc32)c2ccccc2)c1 ?
Reply: 95.6

###

// reported morphology score for each item listed
Tested on: A549-ACE2 infected with SARS-CoV-2
Assay: morphology score (similarity to uninfected cells); higher = more like uninfected cells
Settings: 3 µM; 24 h
Write no unit; give the number alone.

Here's what some known entries look like.
c1cnc(N2CCN(Cc3ccc4c(c3)OCO4)CC2)nc1; -0.1
c1ccc(-c2nn3c(c2-c2ccnc4cc(OCCN5CCOCC5)ccc24)CCC3)nc1; 0.25

Ask: morphology score of CC(NCCC(c1ccccc1)c1ccccc1)c1ccccc1 (stereo unspecified) on A549-ACE2 infected with SARS-CoV-2?
Reply: 0.77

###

The entries below are paired with their reported cell viability.
Tested on: Calu-3
Experiment: cell viability relative to DMSO; higher = less toxic
Settings: 72 h; 1000 nM
Give a bare numeral; the unit % is implied.

Examples with answers:
Cc1ccc(O)c(N=Nc2ccccc2)n1 [SIB-1757]; 99.9
CC(=C(CCOC(=O)C(C)C)SSC(CCOC(=O)C(C)C)=C(C)N(C=O)Cc1cnc(C)nc1N)N(C=O)Cc1cnc(C)nc1N (stereo in doubt) [sulbutiamine]; 105
COc1ccc2[nH]c(-c3ccccc3)c(CCNC(C)=O)c2c1 [2-phenylmelatonin]; 106

Switching to the query record.
Ask: Record O=c1[nH]c2ccccc2n1CCCN1CCC(n2c(=O)[nH]c3cc(Cl)ccc32)CC1 [domperidone] : what is its cell viability with Calu-3?
Reply: 106

###

Test system: HepG2
Test: cell viability relative to DMSO; higher = less toxic
Settings: 72 h; 1 nM
VALUE KIND: cell viability (%)
Write it as a number; the unit % goes unstated.

Before answering, review these 4 worked examples.
Cc1ccc2c(c1)[C@H]1CN(C)CC[C@H]1N2; 107
CCCCC(CC)CCC(CC(C)C)OS(=O)(=O)O (configuration not stated) [sodium-tetradecyl-sulfate]; 93.1
Clc1ccc(CSC(Cn2ccnc2)c2ccc(Cl)cc2Cl)cc1 (configuration not stated); 86.9
NC(=O)N1c2ccccc2CC(O)c2ccccc21 (configuration not stated) [licarbazepine]; 96.3

Ask: Need cell viability, item CN(C)C(=O)c1cc2cnc(Nc3ccc(N4CCNCC4)cn3)nc2n1C1CCCC1
Reply: 95.1

Ask: // returns reported cell viability for input CCCN(CCC)C(=O)C(CCC(=O)OCCCN1CCN(CCOC(=O)Cc2c(C)n(C(=O)c3ccc(Cl)cc3)c3ccc(OC)cc23)CC1)NC(=O)c1ccccc1 (configuration not stated)
Reply: 91

Ask: What measured cell viability goes with CN1CCN(CCc2ccc(Cl)c(Cl)c2)CC1 ?
Reply: 108

Ask: Name the reported cell viability value associated with the compound CCCCC/N=c1\ccn(Cc2ccccc2)c2ccccc12
Reply: 96.3

###

Test system: U2OS
Assay: cell viability relative to DMSO; higher = less toxic
Details: 72 h; 10000 nM
Measured cell viability, listed per entry.
Dear colleague, please return just the value in %, with no unit written.

CCCCCOc1c(OC)ccc2cc(C(=O)NCc3ccc4c(c3)OCO4)c(=O)[nH]c12; 97.4
Cn1cc(-c2cnc3ccc4ccc(CS(=O)(=O)NCc5ccccn5)cc4c(=O)c3c2)cn1; 91.7

Ask: So what does the record say about cell viability for CN(C)Cc1cccc(N/C(=C2\C(=O)Nc3cc(C(N)=O)ccc32)c2ccccc2)c1 ?
Reply: 101

Ask: For the molecule C[N@+]1(CC2CC2)CC[C@]23c4c5ccc(O)c4O[C@H]2C(=O)CC[C@@]3(O)[C@H]1C5 [methylnaltrexone] , what cell viability is on record?
Reply: 99.6

Ask: Which cell viability value is on record for CN(C)CCCO[C@@H]1[C@H]2OC(C)(C)O[C@H]2O[C@@H]1[C@H](O)CO ?
Reply: 101

Ask: Find the recorded cell viability belonging to O=C(CCCCCCCn1cc(-c2cccnc2)nn1)Nc1ccccc1-c1ccccc1 and report it.
Reply: 0.1

Ask: Entry C=C1CC[C@H](O)C/C1=C/C=C1\CCC[C@]2(C)[C@@H]([C@H](C)CCCC(C)C)CC[C@@H]12 : reported cell viability = ?
Reply: 99.4
